Measured stoichiometry N, listed per entry for reference.
- assay-system: T1, Sso1428 with C-terminal tandem tag (Strep and 10x His) (S. solfataricus, UniProt Q97YA4 1-558, methylation (residues not given))
- T1 chain: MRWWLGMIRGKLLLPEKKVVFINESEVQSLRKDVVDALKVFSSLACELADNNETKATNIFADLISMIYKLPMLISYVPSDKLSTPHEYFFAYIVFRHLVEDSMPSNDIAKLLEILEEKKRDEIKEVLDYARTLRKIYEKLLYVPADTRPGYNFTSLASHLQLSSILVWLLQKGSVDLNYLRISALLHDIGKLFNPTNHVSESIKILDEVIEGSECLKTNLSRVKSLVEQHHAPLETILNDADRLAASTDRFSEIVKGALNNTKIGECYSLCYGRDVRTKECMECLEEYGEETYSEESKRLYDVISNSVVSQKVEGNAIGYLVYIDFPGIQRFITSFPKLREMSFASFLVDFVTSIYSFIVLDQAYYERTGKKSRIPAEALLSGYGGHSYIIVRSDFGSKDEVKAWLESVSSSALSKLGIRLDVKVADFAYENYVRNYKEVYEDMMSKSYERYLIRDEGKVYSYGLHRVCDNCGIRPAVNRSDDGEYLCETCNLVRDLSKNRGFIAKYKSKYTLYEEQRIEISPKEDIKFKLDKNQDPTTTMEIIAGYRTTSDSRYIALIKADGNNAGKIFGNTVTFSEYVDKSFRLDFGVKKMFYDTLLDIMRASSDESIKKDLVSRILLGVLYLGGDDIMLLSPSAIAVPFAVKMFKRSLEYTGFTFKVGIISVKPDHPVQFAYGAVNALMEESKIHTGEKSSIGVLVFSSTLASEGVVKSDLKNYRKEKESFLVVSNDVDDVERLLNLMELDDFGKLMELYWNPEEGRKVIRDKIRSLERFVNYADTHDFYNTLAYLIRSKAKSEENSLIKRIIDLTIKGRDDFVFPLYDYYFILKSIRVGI
- assay-remarks: native MS + other: quantitative proteomics with isotope-labelled peptides; exhaustive mass search on the intact mass 427,611 Da; copy numbers of Sso1424, Sso1425 and Sso1426 allowed to vary by one, the others fixed by Table 1; one hit within a mass error of 3%
- cond: both partners purified

Some solved cases for reference:
Sso1430 (natural protein, UniProt Q97YA2 1-206, looked up, methylation (residues not given), Sso1430, subunit of the CSM complex of S. solfataricus; also called RAMP subunit; Csm3 paralog; source: endogenous, S. solfataricus PH1-16; co-purified with the tagged subunit (HisTrap, monoQ, gel filtration)) MIPIKVSMRNLSSLTIAGGSTISSIDIPLNPLGVPPSTIKGTMRTAVHNLLPNGYTSCGEVEPESIREAHKNGVCDVCKLFGYPDSLTGCFTIDVSKTDYRTSYITRVSIDDKTQRAKEGSLFTQQIILPNSDISFTVYYNCNDERLFKLLLYSILDLRYWRLGRNTMIDVKVNNVEEICKSVKCDEEINGILNQLSRYLWEAENK ... 1 subunit:Sso1428
Sso1424 (natural protein, UniProt Q97YA8 16-139, looked up, acetylated N-terminal Ser-16; seven methylated lysines (positions not given), Sso1424, small subunit (probably Csm2) of the CSM complex of S. solfataricus; three copies in the CSM complex; also called small subunit; Csm2; source: endogenous, S. solfataricus PH1-16; co-purified with the tagged subunit (HisTrap, monoQ, gel filtration)) SSQDLLDIATRIAISAIKPKPKSNKPEPYVDSSTINSLLSFLQSRRNVNELLLYIMRQAGRDEIDEETGKLLLASLKDRELKDAVNLLGYVKWVYDTLTGLKVNYNNVKGVKTFKELVNILSKV ... 3 subunit:Sso1428
Sso1426 (natural protein, UniProt Q97YA6 1-281, looked up, methylation (residues not given), Sso1426, RAMP subunit assigned to the Csm3 (Cas7-like) family, CSM complex of S. solfataricus; four copies in the CSM complex; its mass lies within 70 Da of that of Sso1427; also called Csm3; Cas7 family RAMP subunit; source: endogenous, S. solfataricus PH1-16; co-purified with the tagged subunit (HisTrap, monoQ, gel filtration)) MVLMVNYTFIDKRVIKRTTMIEGDVETVSPLKIGGGKDNFDPSSLAKDSILKDVEGRPIIPGSSWKGIFRSTGERILRLRNIEVCSGIGKDYCLNNNRKERDFNSALKENVDQALEIFWDYTCLNCKVFGTMSVIGAVRFLDSLPISYSLNTRSMIAISRTEGAVARRALVTVEYVDVGSKFSFKMMGYNLPNYAIGYLITIMKNIHDGFTQVGGHKSRGFGFVKFGKVKFTDLGEKRIGDEDIQVKDVGDLVEGNGDEFFGRMKPFMEAFNNAKIPYPKK ... 4 subunit:Sso1428
Sso1432 (natural protein, UniProt Q97YA0 1-252, looked up, methylation (residues not given), Sso1432, RAMP subunit of the CSM complex of S. solfataricus; also called RAMP subunit; Csm3 paralog; source: endogenous, S. solfataricus PH1-16; co-purified with the tagged subunit (HisTrap, monoQ, gel filtration)) MVIQVFRLNFRLRTGFRVGGGQEVGDNVIRQLRIGVEGVMIPASSWKGMFRRVSEIVLNSEDHFEEHSKKEVDTRTINALLKSDEKFRRIAISKVGKEVITQNGINVDKLDSESLSDLRRIYNEYNCPIERLYGSNYFAGGITISDSVIPNASIMERTHVTIERKSKKASEKHLFSEEIIDAEKIEVKVIVRNEFELWKNSLKLLREIGYFIGGSKSRGIGYIVLDEKESEYAVINNFSETPKFSELKRYLS ... 1 subunit:Sso1428
Sso1431 (untagged, in the complex purified by tagged Sso1428) (natural protein, UniProt Q97YA1 1-304, looked up, methylation; phosphorylation (residues not given), Csm4 (Sso1431, Cas5 subfamily RAMP protein) of the CSM complex of S. solfataricus; also called Csm4; Cas5-like RAMP subunit; source: endogenous, S. solfataricus PH1-16; co-purified with tagged Sso1428 (HisTrap, monoQ, gel filtration)) MILIKLKVKGYITTQMRRIRNYYFSITNYIPSTTLRGAILAEYYNQTGKIDENFYVSPAYPIKTAPAHYFSPAKERKGDEFIEVKRILEKKEKEFEANKPIEEIMKLEIDGKHPKPKIGSLITYEGETDKENKYREFSSKSIIQMHVAIDKTSISSYKGMLFAYEYKEFDEMWAIASDSEVIDTVKRIKIGRGKNRGNKVVDVEKVREVSLDQSKGLLYCLSPCIGSLFGKTFFKAKYIIGDKSIYSGWFTVDSFSGQKPVFETLREGSLVYVESFSNEKSLMPAGLNFMLRISDLSSILNKVS ... 1 subunit:Sso1428

Exercise: Field request: stoichiometry N | item: Sso1427 (natural protein, UniProt Q97YA5 1-275, looked up, methylation (residues not given), Sso1427, RAMP subunit of the CSM complex of S. solfataricus; its mass lies within 70 Da of that of Sso1426; also called RAMP subunit; Csm3 paralog; source: endogenous, S. solfataricus PH1-16; co-purified with the tagged subunit (HisTrap, monoQ, gel filtration)) MQRSPIRRSNYTPRNEKGLEGVIELQLNVVSDYLHVGSGKYDVEVMRSVSDVKRLVEDYLSGGNKRIPNNVDQYFSMVAFLMVRNKDNVVIPGSTIKGMVRSRLELSVPGSCYIVTGHSTSSSAVYKRIFNPDPNRGSDRFDVNKFPQVCPVCDLLGNMGLASRVSLSDFVMTSGKVDYVNVKGRDYEVVTKGSIFAGKVLYKSLKPVEIGMLLYGFGFVKDCNGSKVMLLGRFKFSDKRFGRVKFSLKTPIADCNKLVSDFVKQFNPRYINEEW
Solution: 1 subunit:Sso1428

Exercise: Give its stoichiometry N value. Item: Sso1425 (natural protein, UniProt Q97YA7 1-250, looked up, methylation; phosphorylation (residues not given), Sso1425, RAMP subunit of the CSM complex of S. solfataricus; also called RAMP subunit; Csm3 paralog; source: endogenous, S. solfataricus PH1-16; co-purified with the tagged subunit (HisTrap, monoQ, gel filtration)) MKMSCMDLDVITTVVKIEGKLRNETLLRVGKGKTQDFAEATDNPIIKYRDRPLIPGSSLKGAFRSLVESYTKSLNDSKYYVCDLDDNSCVSCEEKKKDNGIVEGRYCIPCILFGFKDLASRVYILDAIAEKYSISQRTMVAINRVFGGQMPGHLYTLDYVDPGSEFSFMMMIYNLNLIEGEKDWKAKSVEALKFLLATLVREGIFVGARKSVGYGLIKLVDAKVSLYKAPDHLVSPVIVKKLEEVIGTNG
Solution: 1 subunit:Sso1428
